assay: protein stability index of a GFP-peptide fusion (GPS, HEK-293T) (PSI 1-6); higher = more stable; details: treatment: MLN4924 1 uM, 8 h; c terminus: a fixed tail appended;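 also: 24-mer peptide tiles fused after GFP, lentivirally expressed, FACS-sorted into six equal bins by GFP/DsRed ratio, decoded by Illumina sequencing, PSI is the read-weighted mean bin number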
The class of a record is decided solely by its measured protein stability index; consult bottom range = under 3, center range = from 3 up to 4, top range = 4 and over

Consider the worked cases shown below.
Which bin, given its protein stability index, does REPAGRWKEGRPRVEESGSKKEGK [PBXIP1] occupy?
top range

Also ENERVRGLETGDWGGAPKEGSIWR [ZSWIM9] , if possible.
top range

Also ERSDPVEQGKPVIPAAVLAGFTGS [ETS2] , if possible.
top range

Also GGQDSFESIESYDSCDRLTQSWSS [ETS1] , if possible.
center range

Also NGEYTLMPSPTDVVLPGAVSLRYS [ADAMTS4] , if possible.
center range

---
Which bin, given its protein stability index, does AYACLVCGKYFQGRGLKSHAYIHS [USP39] occupy?
bottom range

Also GNRINVPMVRKRSVSNSTQTSSSS [DLC1] , if possible.
top range

Also PGRPRTDGENVFTGQSKIYSYMSP [KMT5A] , if possible.
center range

Also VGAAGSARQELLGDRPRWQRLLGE [ANKRD9] , if possible.
center range

Also HYLIFDLVTGGELFEDIVAREYYS [CAMK2A] , if possible.
bottom range

Also NETKSQAFVSNSPKLFCPKNRSFD [PLD5] , if possible.
center range

----------
test: protein stability index of a GFP-peptide fusion (GPS, HEK-293T) (PSI 1-6); higher = more stable; details: treatment: MLN4924 1 uM, 8 h; c terminus: a fixed tail appended
Classify as follows. Reported protein stability index greater than or equal to 3: TRUE. Reported protein stability index below: FALSE.

Consider the worked cases shown below.
Hi team, for QARHQLVLTAVDGGTPARSGTTLI [PCDHGC5] , is the recorded protein stability index at or above 3?
TRUE

Also TLEALGYKGPLLEEQALTKAAEGG [FAM98B] , if possible.
TRUE

Also ELQLSDLLKQGYNKTLLRLRLRKE [PKD2L1] , if possible.
FALSE

Also DDDAEEEGPKRELGVRRPGGAGKE [TCF25] , if possible.
TRUE

Also SNSRQLKWLSCGFMLEIVTPTSLS [FBXO33] , if possible.
FALSE

--- query ---
Hi team, for IHIIDFGLAKEYIDPETKKHIPYR [CSNK1G3] , is the recorded protein stability index at or above 3?
FALSE

----------
experiment: protein stability index of a GFP-peptide fusion (GPS, HEK-293T) (PSI 1-6); higher = more stable; conditions: treatment: DMSO; c terminus: a fixed tail appended
readout-kind: protein stability index
Give the figure only, with no unit attached.

Could you share which protein stability index value was measured for TYEEAAAYIQCQFEDLNKRKDTKE [GNAI1] ?
4.61

Also ERLFGSAANVVSAKRNRLAPAHVD [ZBED1] , if possible.
3.65

Also FDAALVSFINFFTSVLATLVVFAV [SLC6A17] , if possible.
3.44

Also DSQAPAGSLDLVPGGLTLEEHSLE [SPDEF] , if possible.
5.36

Also QIRTVIQYQTVRYDILPLSPVSRN [CTDNEP1] , if possible.
2.36

---
Could you share which protein stability index value was measured for GDSASEEKSGSAEPFVLPASSVES [FBXO34] ?
5.39

Also ETRPAKRITITESNMKSRYTTEFH [WEE1] , if possible.
3.49

Also NYPYDKSFEHRVRGVRRTASTPTP [CPN1] , if possible.
4.05
